System: K4 kissing-loop RNA reporter;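 further: bound reporter read as fluorescence of individual clusters on recovered sequencing chips by microscopy, with normalized cluster intensities fitted with a binding model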
Experiment: apparent KD of K4 kissing-loop reporter; higher = weaker reporter binding
Details: Eterna round: R107; input ligand: theophylline 20 uM
Lab note: anything with apparent KD of K4 kissing-loop reporter at or over 100 nM counts as y; the rest go in n.

[[record]]
sequence_entry = "UCAUGUGCCAGUGAUGUUGGCGUACGUGAUACCAGACGAAUAAAAGUCCCUUGGCAGCACAAAUAAGCCAAGAUAGAUGAAUGAU [Exclusion Theophylline A GF 1]"
group_label = "y"

[[record]]
sequence_entry = "UUUGGAGUGGGAGGAUAUCCUAAUAUGGGUGAUGUUAGCGAUGUUGAAGGUGUAGUGAUGUUAUGCGGAGAAGGCCCACUGUAGA [BDazzled - #19 - Exc. FMN B]"
group_label = "n"

[[record]]
sequence_entry = "GAAUAAUAACAUGAGUGAUGUUCAUGUAAACGAGGACCGGUACGGCCGCCACUCGUUUCUCAUGUAAGCCGUACCAAUAACAAUA [KL-XTryp-A5 #analogue]"
group_label = "y"

[[record]]
sequence_entry = "AACUCUCACUGGAGUGAUGUUCUGGAAAACCGAGGACCGGUACGGCCGCCACUCGGAAAUGAGAGAGUCCUACGAAAAGUAGGAC [Omei inspired 1]"
group_label = "y"

[[record]]
sequence_entry = "GGCCACGGGCGAGGAUAUGGGCAUGAUUCAUCCUGGAGUGAUGUUCCAGGUCCUACGUUUCUAGCACCAGAAGGCGUUUGUUGCU [Enistein]"
group_label = "y"


----------
Test system: MS2 coat protein
Experiment: apparent KD of MS2 coat protein, switch ON state; designed switch direction (-1 OFF switch, 1 ON switch): -1; higher = weaker reporter binding
Conditions: FMN input: 0 or 200 uM; Eterna round: R93 (includes R88 designs)
assay_readout: apparent KD of MS2 coat protein (nM)

[[record]]
sequence_entry = "AACCAACAUGAGGAUCACCCAUGUCAGGAUAUGCAAACAACAAACAACAAACAACAAAGCAGAAGGGACAAAAA [Amethyst 82]"
unit_of_measure = "nM"
reported = 17.8

[[record]]
sequence_entry = "UAAACCCUAGGAUAUACAUGAGGAUCACCCAUGUUUGUCGAAGAACGAACAGUCCUCAGUAGAAGGAGGACGAA [Geriza]"
unit_of_measure = "nM"
reported = 27.4

[[record]]
sequence_entry = "AGUCUGAGAGGAUAUACAUGAAAAAAAAAAGUAAGAUCCCUACAUGAGGAUCACCCAUGUAGAAGGCUCUGACA [Ex2 Design 145: Sub-opt 9]"
unit_of_measure = "nM"
reported = 31.4

[[record]]
sequence_entry = "AACUGACAUGAGGAUCACCCAUGUCAGGAUAUGACAUCGAAAAAAAAAAAAAUCGUUGUCAGAAGGGACAUGAA [Design 77: Sub-opt SB]"
unit_of_measure = "nM"
reported = 16.7

[[record]]
sequence_entry = "GAACACGGAGGAUAUACAUGAGGAUCACCCAUGUUGAUCCUCAUUAAAAUUGAUAAAUGUAGAAGGCCGUGAUA [Exclusion 3.11 (a Vinnie Mod, FMN+ favored more)]"
unit_of_measure = "nM"
reported = 49.4

[[record]]
sequence_entry = "AGAAAGUCAGGAUAUACGAAUAAGAAUAAAGACGAGAUCGGACAUGAGGAUCACCCAUGUAGAAGGGACAAGAA [Diamond 17]"
unit_of_measure = "nM"
reported = 121

[[record]]
sequence_entry = "AAAAAGUCAGGAUAUGUGGAAAAAAUAAAAAAAAUAAAAACACAGAAGGGACAUGAGGAUCACCCAUGUUAAAA [Ex 4 May 18]"
unit_of_measure = "nM"
reported = 45.4

[[record]]
sequence_entry = "AGUUGGCGAGGAUAUACAUGAGGAUCACCCAUGUGAAAGAAAAAAGUGAAAAAGAAAAGUAGAAGGCGCUGACA [73%, Moding Norbert Elias, 4]"
unit_of_measure = "nM"
reported = 31.3

[[record]]
sequence_entry = "AACAGUACAGGAUAUACAUGAGGAUCACCCAUGUAGAGAGAAUAAAACAAAAAUAAAAGUAGAAGGGUACUGGA [Ruby 48]"
unit_of_measure = "nM"
reported = 21.8

[[record]]
sequence_entry = "GAAGUGUUAGGAUAUCGAUGAAUAAUAAAACAAAGGAACAUUGAGAAGGAACAUGAGGAUCACCCAUGUAAAAC [May 82]"
unit_of_measure = "nM"
reported = 33.4

[[record]]
sequence_entry = "AACGGGCUAGGAUAUACACAAGCCUCAUAACAAAUAAACAAACAUGAGGAUCACCCAUGUAGAAGGAGCGCAAA [Quraaon]"
unit_of_measure = "nM"
reported = 33

[[record]]
sequence_entry = "AAAAAACAUGAGGAUCACCCAUGUCAGGAUAUCGAAAAGAAAAGAAAAGAAAGAAGAACGAGAAGGGACAAGAA [Menkaura]"
unit_of_measure = "nM"
reported = 29.3

[[record]]
sequence_entry = "AAGUUAUUAGGAUAUACUUGUGCGAUUAAUACGCUGAUAGUACAUGAGGAUCACCCAUGUAGAAGGAAUAAAAA [JR_Exc002_Sub410]"
unit_of_measure = "nM"
reported = 33.4

[[record]]
sequence_entry = "AAGGGACAUGAGGAUCACCCAUGUCAGGAUAUGAUGCGAAUAAAGAAAGAAGAAAGCAUCAGAAGGGACGCCAA [58%, Disencluded 3, 5]"
unit_of_measure = "nM"
reported = 25.4

[[record]]
sequence_entry = "AAGGGACAUGAGGAUCACCCAUGUCAGGAUAUGAUGCGAAUAAAGAAAGAAGAAAGCAUCAGAAGGGACGCCUA [58%, Disencluded 3, 6]"
unit_of_measure = "nM"
reported = 19.3

